Origin of measurements: PubChem BioAssay (NCI)

System: SF-539 CNS
Test: NCI tumour cell line growth inhibition, 48 h
MEASURED METRIC: TGI

Sure, the documented TGI for COc1ccc(C(c2cc(OC)c(OC)c(OC)c2)N2C(=O)CCC2C(=O)O)cc1 (stereo not given) is 52 µM

Sure, the documented TGI for `O=C1[C@@H]2C(c3ccncc3)=NO[C@@H]2C(=O)N1c1ccc(Cc2ccc(N3C(=O)[C@H]4C(c5ccncc5)=NO[C@H]4C3=O)cc2)cc1` is > 100 µM

Sure, the documented TGI for `CCN(CC)c1ccc2cc(-c3csc(C)n3)c(=O)oc2c1` is > 100 µM

Sure, the documented TGI for CC(CC(C)[C@H]1CCC2[C@H]3C(CC(=O)[C@@]21C)[C@@]1(C)CCC(O)C[C@H]1C[C@@H]3O)C(=O)O (stereo not given in full) is > 100 µM

Sure, the documented TGI for `CCOC(=O)N1CCc2cc(OC)c(OC)cc2/C1=C/c1ccc(OC)c(OC)c1` is > 100 µM

###

Test system: SK-MEL-2 melanoma
Assay: NCI tumour cell line growth inhibition, 48 h
Task for the reader: assign each of the following compounds its reported TGI.

Sure, the documented TGI for CNC1=CC(=O)C2=C(C1=O)C1C3=C(C(=O)C(Br)=C(OC)C3=O)C2c2ccccc21 (centres undefined) is 14.1 µM

Sure, the documented TGI for COC1C(O)CC(OC2CC(OC3CC(O[C@@H]4C(=O)c5c(cc6cc(OC7CC(OC8CC(O)C(O)C(C)O8)C(O)C(C)O7)c(C)c(O)c6c5O)C[C@H]4[C@H](OC)C(=O)[C@@H](O)[C@@H](C)O)OC(C)C3O)OC(C)C2O)OC1C (some centres undefined) is < 0.0205 µM

Sure, the documented TGI for Nc1ncc(N)c(NCC2(CO)CC(CCc3ccccc3)C2)n1 (centres undefined) is 23 µM

Sure, the documented TGI for `CCOC(=O)C1=C(c2ccccc2)NC(c2ccccc2)=C(C(=O)OCC)c2c1c(=O)cc[nH]c2=O` is > 100 µM

Sure, the documented TGI for `N=C(N)SCCN1CCCCC1` is 17 µM

Sure, the documented TGI for `CCOC(=O)CNC(=O)CNC(=O)CNC(=O)CNNc1c(OCc2ccccc2)c(=O)c1=O` is > 100 µM

Sure, the documented TGI for `O=C(O)c1nnsc1-c1csnn1` is > 100 µM

Sure, the documented TGI for `C/C(=C1/N=C(c2ccccc2)OC1=O)c1ccccc1` is > 100 µM

Sure, the documented TGI for `NC(=S)N/N=C/c1ccc(OC(=O)COc2ccccc2)cn1` is > 100 µM

###

Task for the reader: assign each of the following molecules its reported GI50.

Field GI50 (MDA-MB-435), entry `C[C@@H]1CC[C@@H]2[C@@H]1[C@H](OC(=O)c1ccc3ccccc3c1)[C@]1(C3CCCCC3)C[C@@H](OC(=O)CO)[C@@]2(C)O1` : 14.1 µM

Field GI50 (MDA-MB-435), entry `CCCC(=O)O[C@]1(C)CC[C@@H]2[C@H]3[C@@H]1[C@@H]1C/C(C)=C\CC[C@](C)(OC(=O)[C@@H]2C)[C@H]3O1` : 32.6 µM

Field GI50 (MDA-MB-435), entry `O=C(Nc1nc(-c2ccccc2)cs1)c1cc(O)c(O)c(O)c1` : 5.59 µM

Field GI50 (MDA-MB-435), entry CC(=O)[O][Hg][CH2]C1(C)COC(C)([CH2][Hg][O]C(C)=O)CO1 (stereo unspecified) : 2.72 µM

Field GI50 (MDA-MB-435), entry `O=C(Nc1cc(C(F)(F)F)cc(C(F)(F)F)c1)Nc1ccc(OCc2nnc(-c3ccc(Cl)cc3)o2)c(F)c1` : 2.6 µM

Field GI50 (MDA-MB-435), entry `Cc1ccc(NC(=O)N2CCCCC2)cc1[N+](=O)[O-]` : > 100 µM

Field GI50 (MDA-MB-435), entry `c1ccc2c(-c3cnn4cc(-c5ccc(N6CCNCC6)cc5)cnc34)ccnc2c1` : 0.556 µM

Field GI50 (MDA-MB-435), entry CNC1=CC(=O)C2=C(C1=O)C1C3=C(C(=O)C(Br)=C(OC)C3=O)C2c2ccccc21 (stereo unspecified) : 6.92 µM

Field GI50 (MDA-MB-435), entry `COc1cc2oc(-c3cccc(C(=O)Nc4ccc(C)cc4)c3)cc(=O)c2c(OC)c1OC` : 2.26 µM

Field GI50 (MDA-MB-435), entry `O=C(O)c1cc2cc(O)ccc2[nH]1` : > 100 µM

Field GI50 (MDA-MB-435), entry `C=C(CN(C)Cc1ccccc1)c1ccc(C(=O)Nc2ccccc2N)cc1` : 1.42 µM

###

Test system: UO-31 renal
Experiment: NCI tumour cell line growth inhibition, 48 h
Task for the reader: assign each of the following compounds its reported TGI.

Sure, the documented TGI for `Cc1ccc(S(=O)(=O)OI(O)CC(F)(F)F)cc1` is > 100 µM

Sure, the documented TGI for `O=C1O/C(=C\C=C\CO)C=C1/C=C/CO` is 30.8 µM

Sure, the documented TGI for COc1cc(/C=C2\NC(=S)C3Cc4c(OC)c(C)c(OC)c(OC)c4C2N3C)c(OC)c(C)c1OC (stereo unspecified) is > 100 µM

Sure, the documented TGI for `CC(C)c1ccc(/C=N/N=C(N)N)cc1` is 22.3 µM

Sure, the documented TGI for Cc1ccccc1NC(=O)C(=O)CC(=O)C1CCOC1=O (stereo unspecified) is > 100 µM

Sure, the documented TGI for `COc1cc(O)c2c(=O)c(OC)c(-c3ccc(OC)c(OC)c3)oc2c1.[Zn+2]` is > 100 µM

Sure, the documented TGI for `O=C(/C=C/c1ccc(O)cc1)c1cc(-c2cc(CCC(=O)c3ccc(O)cc3O)ccc2O)c(O)cc1O` is > 50 µM

Sure, the documented TGI for `CC(=O)Oc1cc(/C=C/c2ccc(O)cc2)cc(OC(C)=O)c1` is > 100 µM

Sure, the documented TGI for `C=C(C[C@@H](O)[C@H](C)NC(=O)OCc1ccccc1)C(=O)OC(C)(C)C` is > 100 µM

Sure, the documented TGI for CC(=O)N1N=C(c2ccc(Nc3nc(Nc4ccc(F)cc4)nc(Nc4ccc(Cl)cc4)n3)cc2)CC1c1ccc(N(C)C)cc1 (stereo unspecified) is 16.6 µM

Sure, the documented TGI for `Cc1ccc(N(/C=C/C(=O)C(F)(F)F)CC(=O)c2ccc(Cl)c(Cl)c2)cc1` is 19.1 µM

###

Task for the reader: assign each of the following molecules its reported TGI.
Tested on: MALME-3M melanoma
Assay: NCI tumour cell line growth inhibition, 48 h

Sure, the documented TGI for `Cc1[nH]c(=O)nc(N/N=C/c2ccc(Cl)cc2)c1C(=O)Nc1ccc(Cl)cc1` is 55.2 µM

Sure, the documented TGI for `OCCSCC/C(=N\N=C(/CCSCCO)c1ccccc1)c1ccccc1` is > 100 µM

Sure, the documented TGI for CCOC(=O)C(C)c1nc2cc(C(F)(F)F)ccc2[nH]c1=O (configuration not stated) is > 100 µM

Sure, the documented TGI for O=c1oc2c(cc1-c1ccccc1)C(O)Oc1ccccc1-2 (configuration not stated) is 58.5 µM

Sure, the documented TGI for `Cc1c(-c2ccccc2)c(C#N)c2nnn(C)c(=O)n12` is > 100 µM

Sure, the documented TGI for `CCCC(=O)O[C@]1(C)CC[C@@H]2[C@H]3[C@@H]1[C@@H]1C/C(C)=C\CC[C@](C)(OC(=O)[C@@H]2C)[C@H]3O1` is > 100 µM

Sure, the documented TGI for COC1C(O)CC(OC2CC(OC3CC(O[C@@H]4C(=O)c5c(cc6cc(OC7CC(OC8CC(O)C(O)C(C)O8)C(O)C(C)O7)c(C)c(O)c6c5O)C[C@H]4[C@H](OC)C(=O)[C@@H](O)[C@@H](C)O)OC(C)C3O)OC(C)C2O)OC1C (some centres not stated) is 0.243 µM

Sure, the documented TGI for CC(CC(C)[C@H]1CCC2[C@H]3C(CC(=O)[C@@]21C)[C@@]1(C)CCC(O)C[C@H]1C[C@@H]3O)C(=O)O (some centres not stated) is > 100 µM

Sure, the documented TGI for `Cc1cccc(/C=C2/C(=O)Nc3ccccc32)n1` is 49.1 µM

Sure, the documented TGI for `CNC(=O)OCc1nc(N=[N+]=[N-])n(C)c1COC(=O)NC` is > 100 µM

Sure, the documented TGI for CC(C(=O)O)C1Nc2ccccc2NC1=O (configuration not stated) is > 100 µM

Sure, the documented TGI for `NC(=S)N/N=C/c1ccc(OC(=O)COc2ccccc2)cn1` is > 100 µM

Sure, the documented TGI for Cc1ccccc1C1CC(=O)CC(c2ccccc2C)C12C(=O)NC(=S)NC2=O (configuration not stated) is 78.4 µM

Sure, the documented TGI for `O=C(Nc1cc(C(F)(F)F)cc(C(F)(F)F)c1)Nc1ccc(OCc2nnc(-c3ccc(Cl)cc3)o2)c(F)c1` is 6.27 µM

Sure, the documented TGI for `O=C1Nc2ccc(CN3CCOC3=O)cc2/C1=C/c1cc(CN2CCOCC2)c[nH]1` is > 100 µM

Sure, the documented TGI for `CC1(Cc2cc3c(cc2C2(c4ccc([N+](=O)[O-])cc4)OCCO2)OCO3)OCCO1` is > 100 µM

Sure, the documented TGI for `C/C(=C(/C)c1cc[n+](C)cc1)c1cc[n+](C)cc1` is > 75 µM

Sure, the documented TGI for `O=[N+]([O-])c1ccc2nc3ccscc-3c2c1` is > 100 µM

Sure, the documented TGI for `CCOc1ccc(NC(=O)c2cc3ccccc3cc2O)cc1` is > 100 µM

Sure, the documented TGI for `Nc1cc(N)cc(Cc2ccccc2)c1` is > 100 µM

Sure, the documented TGI for CC1(C)CC2C(/C1=N/O)C1(C)CCCC2(C)C1O (configuration not stated) is > 100 µM

Sure, the documented TGI for `CCOC(=O)CNC(=O)CNC(=O)CNC(=O)CNNc1c(OCc2ccccc2)c(=O)c1=O` is > 100 µM

Sure, the documented TGI for `CCOC(=O)CON=c1c2ccccc2ccc2ccccc12` is > 100 µM

Sure, the documented TGI for `[O-]/[N+](=N/c1ncc(-c2ccccc2)cn1)c1ncc(-c2ccccc2)cn1` is > 100 µM

Sure, the documented TGI for `O=C1Nc2ccccc2/C1=N/N1C(=O)/C(=C/c2ccccc2S)N=C1c1ccccc1` is > 100 µM

Sure, the documented TGI for `Oc1ccc2ccccc2c1NCn1nc(CCCCCCCCc2nn(CNc3c(O)ccc4ccccc34)c(=S)o2)oc1=S` is > 100 µM

Sure, the documented TGI for `CC[C@H]1C=CCC[C@@]2(C[C@@H]3CC[C@H]4[C@@H](C(=O)OCCCCCCCCCCCCCCCC(=O)N(CCCNC(C)=O)C[C@H](CCNC(C)=O)OC(C)=O)[C@@]5(CCC[C@@H](C)O5)NC(=[N+]34)N2)O1` is 2.99 µM

Sure, the documented TGI for CNC1=CC(=O)C2=C(C1=O)C1C3=C(C(=O)C(Br)=C(OC)C3=O)C2c2ccccc21 (configuration not stated) is 17.9 µM

Sure, the documented TGI for CC1=NN(C(=O)CC(=O)Nc2ccc(Cl)cc2)C(=O)C1N=Nc1ccc(S(=O)(=O)c2ccc(N=NC3C(=O)N(C(=O)CC(=O)Nc4ccc(Cl)cc4)N=C3C)cc2)cc1 (configuration not stated) is > 100 µM

Sure, the documented TGI for `C=CC[C@@]12CCC(=O)C=C1CCCC2=O` is > 100 µM

Sure, the documented TGI for CC(=O)C(N=NC1CCC(S(=O)(=O)NB2N=CS2)CC1)C(=O)Nc1ccccc1C (configuration not stated) is 30.5 µM

Sure, the documented TGI for CC(=O)OC1CC2C(C)(C)OC(=O)CC(OC(C)=O)[C@]2(C)C2CCC3(C)C(=CCC3c3ccoc3)[C@]12C (some centres not stated) is 92.6 µM
